Measured On: MRP2 (ABCC2) (Homo sapiens, UniProt Q92887)
Sequence (Q92887 whole entry): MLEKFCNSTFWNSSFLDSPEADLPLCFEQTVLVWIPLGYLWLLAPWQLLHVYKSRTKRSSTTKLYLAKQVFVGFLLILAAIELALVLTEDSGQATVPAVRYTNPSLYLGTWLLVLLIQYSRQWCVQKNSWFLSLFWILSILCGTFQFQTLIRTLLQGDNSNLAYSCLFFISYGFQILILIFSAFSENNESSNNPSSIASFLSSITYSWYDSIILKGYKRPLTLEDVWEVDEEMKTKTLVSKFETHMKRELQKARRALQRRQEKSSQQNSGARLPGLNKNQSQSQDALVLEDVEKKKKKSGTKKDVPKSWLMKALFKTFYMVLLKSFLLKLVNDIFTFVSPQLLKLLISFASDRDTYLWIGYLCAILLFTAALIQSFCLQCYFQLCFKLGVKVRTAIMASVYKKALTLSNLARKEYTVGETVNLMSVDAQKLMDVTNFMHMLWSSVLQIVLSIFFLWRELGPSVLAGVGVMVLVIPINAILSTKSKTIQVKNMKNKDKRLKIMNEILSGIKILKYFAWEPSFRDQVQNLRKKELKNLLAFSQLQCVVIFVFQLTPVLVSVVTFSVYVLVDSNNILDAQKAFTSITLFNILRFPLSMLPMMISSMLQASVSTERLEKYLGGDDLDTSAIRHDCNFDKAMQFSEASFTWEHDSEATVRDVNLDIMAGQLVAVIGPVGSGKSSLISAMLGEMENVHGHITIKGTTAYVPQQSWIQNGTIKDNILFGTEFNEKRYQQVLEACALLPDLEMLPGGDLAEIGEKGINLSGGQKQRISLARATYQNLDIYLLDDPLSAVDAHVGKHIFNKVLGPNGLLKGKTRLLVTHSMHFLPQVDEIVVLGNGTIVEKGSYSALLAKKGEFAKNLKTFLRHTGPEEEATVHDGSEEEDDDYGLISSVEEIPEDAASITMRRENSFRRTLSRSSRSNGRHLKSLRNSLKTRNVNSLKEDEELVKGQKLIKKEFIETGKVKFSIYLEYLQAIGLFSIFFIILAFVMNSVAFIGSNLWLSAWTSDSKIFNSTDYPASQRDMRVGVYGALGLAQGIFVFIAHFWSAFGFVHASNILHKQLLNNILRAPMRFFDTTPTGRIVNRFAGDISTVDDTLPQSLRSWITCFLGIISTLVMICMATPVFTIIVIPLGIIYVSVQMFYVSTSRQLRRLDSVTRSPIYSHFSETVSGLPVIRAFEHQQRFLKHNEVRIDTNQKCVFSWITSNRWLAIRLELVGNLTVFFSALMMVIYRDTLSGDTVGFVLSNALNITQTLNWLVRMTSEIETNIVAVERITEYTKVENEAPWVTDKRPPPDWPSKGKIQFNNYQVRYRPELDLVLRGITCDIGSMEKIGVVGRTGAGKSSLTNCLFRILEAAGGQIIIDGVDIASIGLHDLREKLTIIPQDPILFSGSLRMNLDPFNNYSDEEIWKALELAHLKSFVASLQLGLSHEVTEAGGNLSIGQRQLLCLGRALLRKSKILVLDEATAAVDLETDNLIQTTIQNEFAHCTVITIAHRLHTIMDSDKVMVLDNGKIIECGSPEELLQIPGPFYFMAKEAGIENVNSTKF
Experiment Notes: in vitro
Assay Setup: probe estradiol-17-beta-glucuronide
Description: Effect on human MRP2-mediated estradiol-17-beta-glucuronide transport in Sf9 cells inverted membrane vesicles relative to control
The label 1.0 is reserved for activity strictly under 80%; 0.0 covers values equal to or above it.

Sample answers from the record:
CC(=O)Nc1ccc(S(=O)(=O)Nc2ccc([N+](=O)[O-])cc2)cc1
0.0
CCS(=O)(=O)CCn1c([N+](=O)[O-])cnc1C
1.0
C[C@@H]1CN(c2c(F)c(N)c3c(=O)c(C(=O)O)cn(C4CC4)c3c2F)C[C@H](C)N1
0.0

Q. Is activity strictly under 80% for the entry COC(=O)C1=C(C)NC(C)=C(C(=O)OC(C)C)C1c1cccc2nonc12 (stereo not drawn) ?
A. 1.0

Q. Is activity strictly under 80% for the entry CC1(C)C(/C=C/C=C/C=C/C=C2\N(CCCCS(=O)(=O)O)c3ccc4ccccc4c3C2(C)C)=[N+](CCCCS(=O)(=O)[O-])c2ccc3ccccc3c21 ?
A. 1.0

Q. Is activity strictly under 80% for the entry CNC(=C[N+](=O)[O-])NCCSCc1ccc(CN(C)C)o1 ?
A. 1.0

Q. Is activity strictly under 80% for the entry Nc1ccc(O)c(C(=O)O)c1 ?
A. 0.0

Q. Is activity strictly under 80% for the entry CCCCOc1ccc(OCCCN2CCOCC2)cc1 ?
A. 1.0

Q. Is activity strictly under 80% for the entry O=C(O)Cc1ccccc1Nc1c(Cl)cccc1Cl ?
A. 0.0

Q. Is activity strictly under 80% for the entry O=C1Nc2ccc(Cl)cc2C(c2ccccc2)=NC1O (stereo not drawn) ?
A. 0.0

Q. Is activity strictly under 80% for the entry COc1ccc(-c2coc3cc(O)cc(O)c3c2=O)cc1 ?
A. 0.0

Q. Is activity strictly under 80% for the entry CSc1ccc2c(c1)N(CCC1CCCCN1C)c1ccccc1S2 (stereo not drawn) ?
A. 1.0

Q. Is activity strictly under 80% for the entry NCCCC[C@H](N[C@@H](CCc1ccccc1)C(=O)O)C(=O)N1CCC[C@H]1C(=O)O [LISINOPRIL ANHYDROUS] ?
A. 1.0

Q. Is activity strictly under 80% for the entry CC(=O)CC(c1ccccc1)c1c(O)c2ccccc2oc1=O (stereo not drawn) ?
A. 0.0

---

Measured On: UniProt Q92887
Experiment Notes: Inhibition of human MRP2-mediated estradiol-17-beta-glucuronide transport in Sf9 cells inverted membrane vesicles
Readout Kind: IC50 (µM)
Provide the reading as a plain figure in µM.

Q. # lookup: IC50 of CN(C)C(=O)CCSC(SCCC(=O)O)c1cccc(/C=C/c2ccc3ccc(Cl)cc3n2)c1 (stereo unspecified)
A. 10

---

Here, each record is paired with measured activity data.
Measured On: MRP2 (ABCC2) (Homo sapiens, UniProt Q92887)
Experiment Notes: in vitro
Assay Setup: sf9
Provide the reading as a plain figure in %.

CC(C)(C)c1ccc(C(O)CCCN2CCC(C(O)(c3ccccc3)c3ccccc3)CC2)cc1 (centres undefined)
3

Q. # lookup: activity of COC(=O)C1=C(C)NC(C)=C(C(=O)OCCN(C)Cc2ccccc2)C1c1cccc([N+](=O)[O-])c1 (centres undefined)
A. 59

Q. # lookup: activity of COc1ccc2c3c([nH]c2c1)[C@H](CC(C)C)N1C(=O)[C@H](CCC(=O)OC(C)(C)C)NC(=O)[C@@H]1C3
A. 73

Q. # lookup: activity of CN/C(=N/CCSCc1nc[nH]c1C)NC#N
A. 91

---

Measured On: MRP2 (ABCC2) (Homo sapiens)
Experiment Notes: in vitro
Assay Setup: probe estradiol-17-beta-glucuronide
Decision: activity compared against 80%; not below it gives true (1), below it gives false (0).

O=C(O)[C@H]1O[C@@H](Oc2ccc([N+](=O)[O-])cc2)[C@H](O)[C@@H](O)[C@@H]1O
true (1)
COc1ccc(/C=C/C(=O)Nc2ccccc2C(=O)O)cc1OC
true (1)

Moving on to the next compound.
Q. Does activity meet or surpass 80% for CC(=O)O[C@H]1C[C@@]2(C)[C@@H](C[C@@H](O)[C@H]3[C@@]4(C)CC[C@@H](O)[C@@H](C)[C@@H]4CC[C@@]32C)/C1=C(\CCC=C(C)C)C(=O)O ?
A. false (0)

---

Measured On: MRP2 (ABCC2) (Homo sapiens, UniProt Q92887)
Experiment Notes: in vitro
Assay Setup: probe estradiol-17-beta-glucuronide
Output schema: class label derived from activity. Mapping: low end: < 40%; middle: ≥ 40% and < 90%; high end: ≥ 90%

CN(C)C(=O)C(CCN1CCC(O)(c2ccc(Cl)cc2)CC1)(c1ccccc1)c1ccccc1 [LOPERAMIDE]
middle
C[C@H](CCC(=O)NCCS(=O)(=O)O)[C@H]1CC[C@H]2[C@@H]3CC[C@@H]4C[C@H](O)CC[C@]4(C)[C@H]3CC[C@]12C
low end
COc1ccc(CCN(C)CCCC(C#N)(c2ccc(OC)c(OC)c2)C(C)C)cc1OC (stereo unspecified)
middle
CC(NC(C)(C)C)C(=O)c1cccc(Cl)c1 (stereo unspecified)
high end
O=c1cc(-c2ccc(O)cc2)oc2cc(O)cc(O)c12
high end
CN(C)CC/C=C1/c2ccccc2Sc2ccc(Cl)cc21
low end
C[n+]1ccc(-c2ccccc2)cc1
middle
CC/C(=C(/CC)c1ccc(O)cc1)c1ccc(O)cc1
low end
Nc1ncnc2c1ncn2CCOCP(=O)(O)O
high end
COc1ccc2c(c[n+](C)c3c4cc5c(cc4ccc23)OCO5)c1OC [CHELERYTHRINE CHLORIDE]
middle

Q. Into which category would you place C=C[C@H]1C[N@@]2CC[C@H]1C[C@@H]2[C@@H](O)c1ccnc2ccc(OC)cc12 ?
A. middle

Q. Into which category would you place CC(C)(C)NC(=O)[C@@H]1CN(Cc2cccnc2)CCN1C[C@@H](O)CC(Cc1ccccc1)C(=O)N[C@H]1c2ccccc2C[C@H]1O (single isomer, unassigned) ?
A. high end

Q. Into which category would you place CN1C(C(=O)Nc2ccccn2)=C(O)c2ccccc2S1(=O)=O ?
A. high end

Q. Into which category would you place CC1(C)[C@@H](O[C@H]2O[C@H](C(=O)O)[C@@H](O)[C@H](O)[C@H]2O[C@@H]2O[C@H](C(=O)O)[C@@H](O)[C@H](O)[C@H]2O)CC[C@]2(C)[C@H]3C(=O)C=C4[C@@H]5C[C@@](C)(C(=O)O)CC[C@]5(C)CC[C@@]4(C)[C@]3(C)CC[C@@H]12 ?
A. low end

Q. Into which category would you place CC(=O)S[C@@H]1CC2=CC(=O)CC[C@]2(C)[C@H]2CC[C@@]3(C)[C@@H](CC[C@@]34CCC(=O)O4)[C@H]12 ?
A. high end

---

Measured On: MRP2 (ABCC2) (Homo sapiens, UniProt Q92887)
Experiment Notes: in vitro
Assay Setup: probe estradiol-17-beta-glucuronide
The label y is reserved for activity strictly under 80%; n covers values equal to or above it.

Sample answers from the record:
C[C@]12CC[C@H](OS(=O)(=O)O)CC1=CC[C@@H]1[C@@H]2CC[C@]2(C)C(=O)CC[C@@H]12
n
COc1ccc(Cl)cc1C(=O)NCCc1ccc(S(=O)(=O)NC(=O)NC2CCCCC2)cc1 [GLYBURIDE]
n
NNC(=O)c1ccncc1
n
Cc1cc(=O)n(-c2ccccc2)n1C [ANTIPYRINE]
n
CC(C)(C(=O)O)c1ccc(C(O)CCCN2CCC(C(O)(c3ccccc3)c3ccccc3)CC2)cc1 (stereo not drawn) [FEXOFENADINE]
n
OCCN(CCO)c1nc(N2CCCCC2)c2nc(N(CCO)CCO)nc(N3CCCCC3)c2n1
y
CC#C[C@]1(O)CC[C@H]2[C@@H]3CCC4=CC(=O)CCC4=C3[C@@H](c3ccc(N(C)C)cc3)C[C@@]21C
n

Moving on to the next molecule.
Q. Is activity strictly under 80% for the entry CC1(C)S[C@@H]2[C@H](NC(=O)Cc3ccccc3)C(=O)N2[C@H]1C(=O)O ?
A. y

---

Measured On: MRP2 (ABCC2) (Homo sapiens, UniProt Q92887)
Experiment Notes: in vitro
Assay Setup: probe estradiol-17-beta-glucuronide
Readout Kind: activity (%)
Provide the reading as a plain figure in %.

Example cases with answers are listed next.
C[C@]12CC[C@@H]3c4ccc(OS(=O)(=O)O)cc4CC[C@H]3[C@@H]1CCC2=O [ESTRONE SULFURIC ACID]
300
CCCC1O[C@@H]2C[C@H]3[C@@H]4CCC5=CC(=O)C=C[C@]5(C)[C@H]4[C@@H](O)C[C@]3(C)[C@]2(C(=O)CO)O1 (some centres not stated) [BUDESONIDE]
150
CCOc1ccc(NC(C)=O)cc1 [PHENACETIN]
83
COc1ccc2c(c1OC)C(=O)O[C@@H]2[C@H]1c2c(cc3c(c2OC)OCO3)CCN1C [NOSCAPINE]
78
CC(C)NCC(O)COc1cccc2ccccc12 (configuration not stated) [PROPRANOLOL]
69
CNC(=C[N+](=O)[O-])NCCSCc1csc(CN(C)C)n1 [NIZATIDINE]
110
O=C1c2c(O)cc(O)cc2O[C@H](c2ccc(O)c(O)c2)[C@H]1O [(+)-TAXIFOLIN]
108
O=C1OC2(c3ccc(O)cc3Oc3cc(O)ccc32)c2ccccc21 [FLUORESCEIN]
82
N[C@@H](Cc1c[nH]c2ccccc12)C(=O)O [TRYPTOPHAN]
66
C[C@H](CCC(=O)O)[C@H]1CC[C@H]2[C@@H]3[C@H](O)C[C@@H]4C[C@H](O)CC[C@]4(C)[C@H]3C[C@H](O)[C@]12C [CHOLIC ACID]
112

Q. Look up activity with MRP2 (ABCC2) (Homo sapiens, UniProt Q92887) for this compound: C[C@]12C=CC(=O)C=C1CC[C@@H]1[C@@H]2C(=O)C[C@@]2(C)[C@H]1CC[C@]2(O)C(=O)CO [PREDNISONE]
A. 51

Q. Look up activity with MRP2 (ABCC2) (Homo sapiens, UniProt Q92887) for this compound: C[C@]12CC[C@H]3[C@@H](CCC4=CC(=O)CC[C@@H]43)[C@@H]1CC[C@@H]2O [NANDROLONE]
A. 106
